Please respond with reported GI50 for every item in the list.
System: EKVX NSCLC
test_protocol: NCI tumour cell line growth inhibition, 48 h

Example cases with answers are listed next.
INSERT INTO results (molecule, property, observed_measurement) VALUES
  ('O=C(N/N=C/c1ccc([N+](=O)[O-])cc1)c1ccccc1Nc1ccnc(C(F)(F)F)c1', 'GI50', '14.6 µM'),
  ('O=C(N/N=C\c1ccc(N(CCCl)CCCl)cc1)c1cccnc1', 'GI50', '> 100 µM'),
  ('N[C@@H](Cc1c[nH]c2ccccc12)C(=O)NC1CCN(Cc2c[nH]c3ccc(Cl)cc23)CC1', 'GI50', '10.9 µM'),
  ('Cn1cnc(SC2=CC(=O)C=C3S[C@H]4C[C@@]23c2c(c(O)c3c5c2=NCCC=5C=N3)N4)c1CC(N)C(=O)O (some centres undefined)', 'GI50', '19.3 µM'),
  ('O=c1cc(-c2ccccc2)oc2c(O)c(O)ccc12', 'GI50', '18.4 µM');

Dear reader, for each entry below, please note its GI50.
1. COc1cc(/C=C2\C[C@H]3[C@@H]4CC=C5C[C@@H](O)CC[C@]5(C)[C@H]4CC[C@]3(C)[C@H]2O)ccc1OCCN1CCCCC1
2. N#Cc1ccc2[nH]cc(Cc3c[nH]c4ccc(C#N)cc34)c2c1
3. NC(=O)c1ccc(I)c([N+](=O)[O-])c1
4. OCC#Cc1ccccc1C#Cc1ccc(C#Cc2ccccc2C#CCO)cc1

Response given:
1: 1.67 µM; 2: 14.9 µM; 3: 27.1 µM; 4: 34.6 µM

* * *

Test system: MCF7 breast
test_protocol: NCI tumour cell line growth inhibition, 48 h
property: TGI

Worked set:
INSERT INTO measurements (molecule, observed_measurement) VALUES
  ('CC1(C)CC[C@]2(C)[C@@H](O)C[C@]3(C)C(=CC[C@@H]4[C@@]5(C)CC[C@H](O)C(C)(C)[C@@H]5CC[C@]43C)[C@@H]2C1', '> 100 µM'),
  ('CC1(C)C(CBr)=[N+]([O-])C(C)(C)N1O', '> 10 µM'),
  ('Cc1cn(C(CO)OC(CO)CN(O)C2C3CC4CC(C3)CC2C4)c(=O)[nH]c1=O (centres undefined)', '> 100 µM');

Next up:
Challenge: Which TGI is listed for COc1ccc2c(c1)C(=O)c1c-2n(CCCN=[N+]=[N-])c(=O)c2cc([N+](=O)[O-])ccc12 ?
Response given: 4.83 µM

* * *

Test system: RPMI-8226 leukemia
test_protocol: NCI tumour cell line growth inhibition, 48 h
Exercise: for every item that follows, state its recorded TGI.

Would you please look over these solved cases?
INSERT INTO results (compound, property, observed_measurement) VALUES
  ('Cc1ccc(NC(=O)CCc2nnc3s/c(=C\C=C\c4ccccc4)c(=O)n23)cc1', 'TGI', '> 82.1 µM'),
  ('COc1ccc(NC(=O)c2ccc(C(F)(F)F)nc2Nc2ccc(Cl)cc2C)cc1Cl', 'TGI', '4.88 µM'),
  ('CC[C@H](C)[C@H](NC(=O)c1ncccn1)C(=O)N(C)[C@H](C[C@@H](OC(C)=O)c1nc(C(=O)N[C@@H](Cc2ccccc2)C[C@H](C)C(=O)OC)cs1)C(C)C', 'TGI', '3.98 µM'),
  ('Cc1cn(C(CO)OC(CO)CN(O)C2C3CC4CC(C3)CC2C4)c(=O)[nH]c1=O (stereo not given)', 'TGI', '> 100 µM'),
  ('COC(=O)c1ccc(Oc2nc3ccc(C(F)(F)F)cc3nc2-c2ccccc2)cc1', 'TGI', '> 100 µM');

Provide each entry's TGI from the list below.
1. C/C1=C\[C@@H](C)C[C@@H](C)OC(=O)[C@@H](C)NC(=O)[C@H](Cc2ccc(O)c(Br)c2)N(C)C(=O)CNC(=O)[C@H](C)C1
2. CCOC(=O)NC(=O)c1cn(CCN(CCO)C(=O)NCCCCCCNC(=O)N(CCO)CCn2cc(C(=O)NC(=O)OCC)c(=O)[nH]c2=O)c(=O)[nH]c1=O
3. COc1nc2c(c(=O)n1C)CN(c1ccccc1)C(=O)CN2C
4. CCCC(=O)Oc1ccc(/C=N/NC(N)=S)nc1
5. COc1cc(OCCCN2CCCC2)ccc1Nc1ncc(Cl)c(Nc2ccccc2P(C)(C)=O)n1
6. C=C(C)[C@@H]1C/C=C(/COC(C)=O)CC[C@H]2O[C@@]2(C)CC/C=C(\C)CC1
7. Oc1cccc2ccc(SSc3ccc4cccc(O)c4n3)nc12

Response given:
["56.1 µM", "> 100 µM", "> 100 µM", "> 100 µM", "12.2 µM", "44 µM", "> 100 µM"]

Required: TGI, one value per compound below.
1. N#Cc1ccc2[nH]cc(Cc3c[nH]c4ccc(C#N)cc34)c2c1
2. CC1(C)N=C(N)N=C(N)N1c1cccc(CCCCc2ccc(Cl)c(S(=O)(=O)F)c2)c1

Response given:
1: 49.7 µM; 2: 25.1 µM

Record TGI for all entries; do not skip any.
1. CCC(CO)Nc1nc(NCc2ccccc2)c2n[nH]c(C(C)C)c2n1 (stereo not given)
2. COC(=O)C(/C(=N/N)C(=O)Nc1cc(Cl)ccc1Cl)c1nc2ccc([N+](=O)[O-])cc2[nH]c1=O (stereo not given)
3. O=P(O)(O)c1ccc2c(c1)OCCOCCOCCOCCO2
4. OCC1CC2C=CCC(C2)C1 (stereo not given)
5. COc1ccc2cc(C(=O)N3CCC([C@@H](C)C(=O)NCc4ccc5c(c4)OCO5)CC3)[nH]c2c1
6. COc1ccc(OC)c(-c2cc(-c3ccc(Cl)cc3)nn2-c2ccccc2)c1

Response given:
1. 29 µM
2. > 100 µM
3. > 100 µM
4. > 100 µM
5. > 100 µM
6. 26.5 µM
